- target-or-test-system: pBTK (Homo sapiens, UniProt Q06187)
- Construct: Heparinized venous blood was purchased from Bioreclamation, Inc. or SeraCare Life Sciences; tissue Bioreclamation, Inc. or SeraCare Life Sciences
- Sequence (Q06187 whole entry): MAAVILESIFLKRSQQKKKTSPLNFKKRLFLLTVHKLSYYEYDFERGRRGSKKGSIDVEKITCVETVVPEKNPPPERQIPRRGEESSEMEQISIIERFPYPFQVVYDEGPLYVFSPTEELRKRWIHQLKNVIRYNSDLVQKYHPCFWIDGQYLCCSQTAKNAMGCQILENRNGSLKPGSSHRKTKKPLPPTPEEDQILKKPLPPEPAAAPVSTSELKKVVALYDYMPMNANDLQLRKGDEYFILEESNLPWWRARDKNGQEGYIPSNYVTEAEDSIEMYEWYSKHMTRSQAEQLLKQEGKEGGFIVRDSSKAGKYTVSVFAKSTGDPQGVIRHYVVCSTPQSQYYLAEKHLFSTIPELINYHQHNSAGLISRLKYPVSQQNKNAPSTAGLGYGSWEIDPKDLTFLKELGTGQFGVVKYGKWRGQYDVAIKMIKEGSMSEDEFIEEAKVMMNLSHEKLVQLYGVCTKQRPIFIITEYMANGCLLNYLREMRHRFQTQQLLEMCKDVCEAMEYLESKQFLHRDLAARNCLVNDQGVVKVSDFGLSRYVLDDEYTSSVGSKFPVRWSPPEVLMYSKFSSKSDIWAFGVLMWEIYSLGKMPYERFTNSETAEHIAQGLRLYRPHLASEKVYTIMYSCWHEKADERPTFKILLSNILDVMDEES
- test-description: In vitro PD assay in whole blood (pBTK assay)
- protocol-conditions: 30 min at 37° C.
experimental-readout: IC50

• O=C(N[C@H]1CCCc2cc(-c3ncnc4[nH]ccc34)ccc21)c1cc2c(s1)CCCC2 = 1500 to 10000 nM
• Cc1cc(-c2ncnc3nc(N4CCN(C)CC4)[nH]c23)ccc1CNC(=O)c1cnc(C(C)(C)C)s1 = < 500 nM
• Cc1cc(-c2ncnc3cc(-c4cnn(C)c4)[nH]c23)ccc1C(CO)NC(=O)c1cnc(C(C)(C)C)s1 (stereo not drawn) = 500 to 1500 nM
• Cc1cc(-c2ncnc3cc[nH]c23)ccc1CNC(=O)c1cnc(C(C)(C)C)s1 = 500 to 1500 nM
• Cc1cc(-c2ncnc3cc(-c4cn(C)nc4C)[nH]c23)ccc1CNC(=O)c1cnc(C(C)(C)C)s1 = < 500 nM
• O=C(NC1CCCc2cc(-c3ncnc4[nH]ccc34)ccc21)c1cc2c(s1)CCCC2 (stereo not drawn) = 1500 to 10000 nM
• Cn1cc(-c2cc3c(-c4ccc5c(c4)CCCC5NC(=O)c4cnc(C(C)(C)C)s4)ncnc3[nH]2)cn1 (stereo not drawn) = < 500 nM
• Cc1cc(-c2ncnc3nc(N4CCC(C(=O)O)CC4)[nH]c23)ccc1CNC(=O)c1cnc(C(C)(C)C)s1 = < 500 nM
• Cc1cc(-c2ncnc3cc(-c4cnn(C)c4)[nH]c23)ccc1C(C)NC(=O)c1cnc(C(C)(C)C)s1 (stereo not drawn) = < 500 nM
• Cc1cc(-c2ncnc3[nH]c(-c4ccc(C(=O)N5CCOCC5)cc4)cc23)ccc1CNC(=O)c1cnc(C(C)(C)C)s1 = < 500 nM
• Cc1cc(-c2ncnc3[nH]c(-c4cnn(C)c4)cc23)ccc1C(CO)NC(=O)c1cnc(C(C)(C)C)s1 (stereo not drawn) = 500 to 1500 nM
• Cc1cc(-c2ncnc3cc(-c4cnn(C)c4)[nH]c23)ccc1CNC(=O)c1ncc(C(C)(C)C)s1 = < 500 nM
• Cc1cc(-c2ncnc3[nH]c(-c4cnn(C)c4)cc23)ccc1C(C)NC(=O)c1cc2c(s1)CCOC2 (stereo not drawn) = 1500 to 10000 nM
• Cc1cc(-c2ncnc3[nH]c(C4=CCS(=O)(=O)CC4)cc23)ccc1CNC(=O)c1cnc(C(C)(C)C)s1 = < 500 nM
• Cc1cc(-c2ncnc3cc[nH]c23)ccc1CNC(=O)c1cc2c(s1)CCCC2 = 1500 to 10000 nM
